These entries and their values trace back to patent US6759420B1.

measured_on: factor Xa (Homo sapiens)
Sequence (P00742 235-488 limits assumed): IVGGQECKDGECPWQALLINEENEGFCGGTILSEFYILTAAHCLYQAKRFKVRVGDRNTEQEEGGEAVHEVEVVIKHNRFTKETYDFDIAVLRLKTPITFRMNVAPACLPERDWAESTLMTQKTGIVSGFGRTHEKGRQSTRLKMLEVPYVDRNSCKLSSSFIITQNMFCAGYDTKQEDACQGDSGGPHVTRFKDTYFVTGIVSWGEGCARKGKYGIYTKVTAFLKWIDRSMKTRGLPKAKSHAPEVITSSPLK
Sequence (P00742 41-179 limits assumed): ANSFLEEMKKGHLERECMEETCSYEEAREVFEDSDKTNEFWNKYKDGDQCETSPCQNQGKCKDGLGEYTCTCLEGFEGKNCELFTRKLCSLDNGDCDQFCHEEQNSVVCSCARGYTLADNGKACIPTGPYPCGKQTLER
assay_notes: Factor Xa assay (Test 1a), chromogenic
Assay type: biochemical
Parameters: purchased Enzyme Research Laboratories, Inc; South Bend, Ind
assay_setup: in vitro factor Xa assay Test 1a; human factor Xa 0.5 nM, substrate S-2765 140 μM, 25° C.; Ki from IC50 corrected for substrate competition
Structures can show the parent of a compound that is named as a salt.
Below, each entry is listed with its recorded log10 of Ki.
Transform log10 | Measure Ki | Unit nM

Here's what some known entries look like.
INSERT INTO measurements (compound, measurement) VALUES
  ('N=C(N)NCCCC(NC(=O)C(NC(=O)C(Cc1ccc(C(=N)N)cc1)c1cccc(Br)c1)C1CCCCC1)C(N)=O (single isomer, unassigned; less polar)', 0.00),
  ('N=C(N)c1ccc(CC(C(=O)N[C@H](C(=O)NCC2CCN(C(=N)N)CC2)C2CCCCC2)c2ccccc2F)cc1 (stereo partly shown) [Example 214, trifluoroacetic acid salt]', 1.67),
  ('CS(=O)(=O)c1cccc(C(Cc2ccc(C(=N)N)cc2)C(=O)N[C@H](C(=O)NCC2CCN(C(=N)N)CC2)C2CCCCC2)c1 (single isomer, unassigned; less polar)', 1.49),
  ('N=C(N)c1ccc(CC(C(=O)NC(C(=O)NCCN2C(=O)CNC2=O)C2CCCCC2)C2CCCCC2)cc1 (single isomer, unassigned; less polar)', 3.88),
  ('N=C(N)NCCC[C@H](NC(=O)[C@H](CCCN)NC(=O)C(Cc1ccc(C(=N)N)cc1)c1cccnc1)C(N)=O (mixture of isomers) [Example 51, trifluoroacetic acid salt]', 3.59);

Requested read-out: log10 of Ki. Entry: CN(C)C(=O)[C@H](CCCNC(=N)N)NC(=O)[C@@H](NC(=O)C(Cc1ccc(C(=N)N)cc1)c1cccc(Br)c1)C1CCCCC1 (single isomer, unassigned; less polar)
-0.15

Report log10 of Ki for N=C(N)c1ccc(CNC(=O)[C@@H](NC(=O)C(Cc2ccc(C(=N)N)cc2)c2cccc(Cl)c2)C2CCCCC2)cc1 (mixture of isomers) please.
1.28

---

measured_on: UniProt:P00742
assay_notes: Factor Xa assay (Test 1a), chromogenic
Format: biochemical
Set-up: purchased Enzyme Research Laboratories, Inc; South Bend, Ind
assay_setup: in vitro factor Xa assay Test 1a; human factor Xa 0.5 nM, substrate S-2765 140 μM, 25° C.; Ki from IC50 corrected for substrate competition
# reported pKi; entries follow
The read-out pKi is expressed as -log10 of concentration in moles per litre.

# example entries with known answers
INSERT INTO measurements (molecule, measurement) VALUES
  ('CC(C)OC(=O)[C@H](CCCNC(=N)N)NC(=O)[C@@H](NC(=O)C(Cc1ccc(C(=N)N)cc1)C1CCCCC1)C1CCCCC1 (mixture of isomers)', 7.89),
  ('Cc1ccc(C(Cc2ccc(C(=N)N)cc2)C(=O)N[C@H](C(=O)N[C@@H](CCCNC(=N)N)C(N)=O)C2CCCCC2)cc1 (mixture of isomers)', 7.00),
  ('Cc1cccc(C(Cc2ccc(N)cc2)C(=O)NC(C(=O)NCC2CCN(C(=N)N)CC2)C2CCCCC2)c1 (single isomer, unassigned; less polar)', 7.13);

// next entry
Give the measured pKi of Cc1cccc(C(Cc2ccc(C(=N)N)cc2)C(=O)N[C@H](C(=O)N[C@@H](CCCNC(=N)N)C(N)=O)C2CCCCC2)c1 (mixture of isomers) .
7.80
